test system: MDA-N; assay: NCI tumour cell line growth inhibition, 48 h
Provide the recorded TGI for the entries that follow.

Reported TGI for CN(C)c1ccc(/C=N/NC2=N/C(=C\c3ccco3)C(=O)N2)cc1 was > 100 µM

Record CC1=Nn2c(nc3sc4c(c3c2=O)CCCC4)SC1 , field TGI: > 31.6 µM

GET /value?item= O=C1Cc2c(-c3ccccc3)cc(-c3cccc(Cl)c3)nc2-c2ccccc2N1 &field=TGI returns 31.6 µM

Just so you know, measured TGI for N#C/C(=C(\O)C(=O)O)c1ccc(-c2cccc3ccccc23)cc1 came out at > 100 µM

Noted for O=C1CSC2(CCN(CCCN3c4ccccc4Sc4ccc(Cl)cc43)CC2)N1 : its TGI reads 23.6 µM

Entry Nc1cc(CO)cc(Nc2c3ccccc3nc3occc23)c1 , TGI reported as > 100 µM
